# Study System: HLA-DR (DRA1*01:01 / DRB1*13:01), soluble knob-into-hole Fc heterodimer (human)
# Assay Notes: ELISA
No end group written: not given here.
Measurement Name: pKd
Give bare numbers, as −log10 of the molar value.

Look up pKd: KPVSKMRMATPLLMQALPM (also: biotin-labeled) [biotin-labeled human Class II-associated Invariant Chain Peptide (Bio-CLIP)]
6.50
